B1: TRIM39 (parent)
chain: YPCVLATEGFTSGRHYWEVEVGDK

Variants of: B1
Experiment: protein stability index of a GFP-peptide fusion (GPS, HEK-293T) (PSI 1-6); higher = more stable;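 further: lentivirally expressed fusions sorted by FACS into six bins by GFP to DsRed ratio, PSI derived from sequencing read proportions per bin multiplied by bin number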
Conditions: c terminus: a fixed tail appended
Given measured protein stability index, output TRUE if it is greater than or equal to 2 and FALSE if not.

The examples below pair each entry with its known result.
Request: Quick check, protein stability index >= 2? `P2T`
Result: TRUE

Request: Is the recorded value of protein stability index equal to or greater than 2 for this variant? `G9P`
Result: TRUE

Request: Threshold query (protein stability index >= 2) on `E18F`
Result: FALSE

Request: Quick check, protein stability index >= 2? `V21G`
Result: FALSE

Request: Say whether `Y16M` shows protein stability index of 2 or more.
Result: TRUE

Continuing:
Request: Hi team, for `D23M` , is the recorded protein stability index at or above 2?
Result: FALSE

Request: Test whether the variant `A6R` records protein stability index of 2 or higher.
Result: FALSE
